Tested on: HCT-116 colon
Assay: NCI tumour cell line growth inhibition, 48 h
Readout Kind: GI50

In: Entry `CN(C)c1ccc(/C=N/NC(N)=S)nc1` needs its GI50 filled in; supply it.
Out: 3.3 µM

In: Entry `Oc1ccccc1-c1nn(CNc2ccc(Cl)cc2)c(=S)o1` needs its GI50 filled in; supply it.
Out: 18.2 µM

In: Entry `O=c1cc(-c2ccc(F)cc2)[nH]c2ncccc12` needs its GI50 filled in; supply it.
Out: 42.9 µM

In: Entry `CCSC[C@@H]1C[C@](O)(c2ccc(Cl)cc2)[C@@H](c2ccc(Cl)cc2)O1` needs its GI50 filled in; supply it.
Out: 12.6 µM

Okay, next one:
In: Entry `COc1cc(CCC[P+](c2ccccc2)(c2ccccc2)c2ccccc2)c(OC)c2c1OCO2` needs its GI50 filled in; supply it.
Out: 0.989 µM

----------
Test system: MALME-3M melanoma
Assay: NCI tumour cell line growth inhibition, 48 h
Readout Kind: GI50

Illustrative cases are given below, each with its answer.
In: Entry Cc1ccc2c(C(C[N+](=O)[O-])c3ccccc3)c(-c3ccccc3)[nH]c2c1 (stereo not given) needs its GI50 filled in; supply it.
Out: 10.2 µM

In: Entry `COc1ccccc1C#Cc1ccccc1C#Cc1ccc(OCCCCCCOc2ccccc2C#Cc2ccccc2C#Cc2ccccc2OC)cc1` needs its GI50 filled in; supply it.
Out: > 100 µM

Next:
In: Entry `COc1cnc2c(c1)C(=O)c1c-2n(CCCN2CCCC2)c(=O)c2cc([N+](=O)[O-])ccc12` needs its GI50 filled in; supply it.
Out: 0.0558 µM

In: Entry `CCSC[C@@H]1C[C@](O)(c2ccc(Cl)cc2)[C@@H](c2ccc(Cl)cc2)O1` needs its GI50 filled in; supply it.
Out: 15.2 µM

In: Entry `NC(=S)N/N=C/c1ccc(OC(=O)COc2cc(Cl)c(Cl)cc2Cl)cn1` needs its GI50 filled in; supply it.
Out: 4.96 µM

In: Entry `COc1ccc(Nc2nc(NCCNc3ccnc4cc(Cl)ccc34)nc(N3CCOCC3)n2)cc1` needs its GI50 filled in; supply it.
Out: 1.94 µM

In: Entry `CCC1=C(c2ccc(OC)cc2)C(C)(C)Oc2c1ccc(O)c2CN1CCCC1` needs its GI50 filled in; supply it.
Out: 2.05 µM

In: Entry `COc1cc(-n2ccnc2-c2ccc3ccccc3c2)cc(OC)c1OC` needs its GI50 filled in; supply it.
Out: 3.66 µM

In: Entry `Cc1c(Cn2c(C)nc3c(C(=O)O)cc(N4CCOCC4)cc32)cccc1C(F)(F)F` needs its GI50 filled in; supply it.
Out: > 69.7 µM

In: Entry `CCC(CC)n1cnc2c(-c3cnc(N)cn3)nc(N3CC4CCC(C3)O4)nc21` needs its GI50 filled in; supply it.
Out: 0.0472 µM

In: Entry `CCCc1nn(C)c2c(=O)[nH]c(-c3cc(S(=O)(=O)N4CCN(C)CC4)ccc3OCC)nc12` needs its GI50 filled in; supply it.
Out: > 100 µM

In: Entry `COc1cc2nc(N3CCCN(C)CC3)nc(NC3CCN(Cc4ccccc4)CC3)c2cc1OC` needs its GI50 filled in; supply it.
Out: 1.87 µM

In: Entry `O=C(O)Cc1cccc2c(=O)cc(-c3ccccc3)oc12` needs its GI50 filled in; supply it.
Out: 725 µM

In: Entry `COc1cc(CCC[P+](c2ccccc2)(c2ccccc2)c2ccccc2)c(OC)c2c1OCO2` needs its GI50 filled in; supply it.
Out: 0.602 µM

In: Entry COc1ccc2c(c1)CCC1C2CC[C@@]2(C)C1CC[C@@H]2NC(=O)Cc1ccc(O)c(O)c1 (stereo not given in full) needs its GI50 filled in; supply it.
Out: 9.13 µM
